Test system: P388 leukemia ip, CD2F1 mice, survival T/C
Assay: NCI In Vivo Anticancer Drug Screen. Data for tumor model P388 Leukemia (intraperitoneal) in CD2F1 (CDF1) mice
Conditions: endpoint: median survival time; dose: 100.0 mg/kg/injection; schedule: Q04DX003 (ip); vehicle: saline
Method: The antitumor activity of compounds was measured in mice bearing transplantable tumors. Survival or tumor size were measured and the results are expressed as the measurement made in the treated group (T) divided by the measurement made in the vehicle treated control group (C). The tumor model used in this assay is P388 Leukemia (intraperitoneal) in CD2F1 (CDF1) mice
Toxic doses and inconclusive results are not listed. The calls were made as follows: active = survival T/C of 150% or more; inactive = T/C below 125% in these data.
Outcome (select one): class 1 for active, class 0 for inactive

CC/C(=N/NS(=O)(=O)c1ccc(C)cc1)c1ccc(O)cc1 ... class 0
CCOC(O)C(F)(F)F (stereo not drawn) ... class 0
CSc1ccc2c(=O)c(C(=O)O)c[nH]c2c1 ... class 0
CCN1CCC(C2(C(=O)OC)c3ccccc3-c3ccccc32)C1 (stereo not drawn) ... class 0
O=[N+]([O-])c1cccc2c(S(=O)(=O)O)cccc12 ... class 0

Challenge: Please state the recorded outcome for this molecule: Cc1c2cc[n+](CCN3CCCCC3)cc2c(C)c2c1[nH]c1ccc(O)cc12
Response given: class 1

Challenge: Please state the recorded outcome for this molecule: CC(O)COCCOCCO (stereo not drawn)
Response given: class 0

Challenge: Please state the recorded outcome for this molecule: O=S(=O)(/N=C1/C=CC=CC1=C(N1CCOCC1)N1CCOCC1)c1ccccc1
Response given: class 0

Challenge: Please state the recorded outcome for this molecule: C1=CCONC1
Response given: class 0

Challenge: Please state the recorded outcome for this molecule: CN1CCCC(Cl)(C(=O)c2ccccc2)C1 (stereo not drawn)
Response given: class 0

Data credit: PubChem BioAssay AID330
